The measurements presented in this section are drawn from patent US20100310640A1.

Target: T1, HLA-DR DRB1*0701 (human)
T1 chain 1: not shown
T1 chain 2: not shown
Test: radioligand competition, purified HLA-DR
Settings: remark: other sources report otherwise
reported.property: IC50 (nM)

a: LLTFWNPPTTAKLTI [CEA.24 (peptide 9019.0105)]
b: FYTLHVIKSDLVNEE [CEA.119 (peptide 9019.0114)]
Req: When the recorded IC50 values are compared, which is smaller: that of a or that of b ? Field: selected label. Fill in the label of the entry you choose.
Resp: a
